- tested-system: rat mGlu2 (Rattus norvegicus, UniProt P31421)
- Construct: expressed in transfected cells
- Sequence (P31421 19-872): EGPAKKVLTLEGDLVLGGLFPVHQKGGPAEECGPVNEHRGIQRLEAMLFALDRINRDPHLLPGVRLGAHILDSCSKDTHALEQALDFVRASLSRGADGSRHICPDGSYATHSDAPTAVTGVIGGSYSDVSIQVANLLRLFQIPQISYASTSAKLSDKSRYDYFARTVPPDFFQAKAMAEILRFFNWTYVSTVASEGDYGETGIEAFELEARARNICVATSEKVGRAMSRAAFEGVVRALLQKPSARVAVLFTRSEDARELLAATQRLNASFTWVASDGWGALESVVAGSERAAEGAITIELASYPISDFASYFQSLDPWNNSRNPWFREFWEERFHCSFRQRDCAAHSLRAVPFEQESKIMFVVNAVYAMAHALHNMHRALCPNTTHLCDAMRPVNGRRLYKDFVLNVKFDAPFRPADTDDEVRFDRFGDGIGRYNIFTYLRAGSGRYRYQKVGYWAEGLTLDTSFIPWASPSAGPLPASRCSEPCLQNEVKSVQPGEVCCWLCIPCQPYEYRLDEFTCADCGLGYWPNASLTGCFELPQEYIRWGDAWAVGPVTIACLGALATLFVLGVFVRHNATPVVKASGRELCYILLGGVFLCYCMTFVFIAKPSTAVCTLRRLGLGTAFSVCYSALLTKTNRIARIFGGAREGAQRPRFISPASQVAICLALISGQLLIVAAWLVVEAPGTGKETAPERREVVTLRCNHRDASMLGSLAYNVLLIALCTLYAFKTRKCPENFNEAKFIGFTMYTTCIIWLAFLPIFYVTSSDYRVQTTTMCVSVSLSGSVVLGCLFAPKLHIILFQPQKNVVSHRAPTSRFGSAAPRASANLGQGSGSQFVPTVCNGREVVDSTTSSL
- protocol-text: mGlu2 Ca2+ flux assay
- Assay type: cell-based
- condition-summary: amplitude of response in the presence of 30 μM test compound as percentage of maximal response to glutamate; read-out: rat mGlu2 Glu max (%)
observed-property: remaining activity at 30 µM (%)

1: CN(c1cccnc1)c1ccc2c(c1)c(=O)c(C(N)=O)cn2-c1ccc(F)cc1
2: CC(=O)N1CCN(Cc2ccc3c(c2)c(=O)c(C(N)=O)cn3-c2ccc(F)cc2)CC1
q: Kindly compare 1 with 2 and tell me which has the lower remaining activity at 30 µM figure. Could you answer with the label of the item you picked?
a: 1
(1: 1.33%, 2: 2.14%)
